- targetOrSystem: human 20S immunoproteasome (i20S) (Homo sapiens, UniProt P28062)
- experimentalProtocol: 20S proteasome assay, chymotrypsin-like activity (succinyl-Leu-Leu-Val-Tyr-AMC), i20S
- Type: biochemical
- reportedConditions: LLVY substrate, 1 h continuous
assayEndpoint: IC50 (nM)
Give bare numbers, in nM.

Worked examples follow.
C[C@H](NC(=O)CN1CCOCC1)C(=O)N[C@@H](Cc1c[nH]c2ccccc12)C(=O)N[C@@H](CC1CCCC1)C(=O)[C@@]1(C)CO1 [Compound C-1014]
289
COc1ccc(C[C@H](NC(=O)[C@@H](C)NC(=O)[C@H]2C[C@H](O)C2)C(=O)N[C@@H](CC2CCCC2)C(=O)[C@@]2(C)CO2)cc1 [Compound C-1041]
232

As a next step, examine the molecule that follows.
What the record says about COc1ccc([C@H](O)[C@H](NC(=O)[C@H](C)NC(=O)CN2CCOCC2)C(=O)N[C@@H](CC2CCCC2)C(=O)[C@@]2(C)CO2)cc1 [Compound C-1023] : IC50 is 322

----------
For each entry below, report its log10 of solubility value.
- experimentalProtocol: Solubility pH 7
- reportedConditions: pH 7, aqueous buffer
Units before log transform: µg/mL; reported quantity: solubility; transform: log10.

COc1ccc(C[C@H](NC(=O)[C@@H](C)NC(=O)[C@H]2CCC(=O)NC2)C(=O)N[C@@H](CC2CCCC2)C(=O)[C@@]2(C)CO2)cc1 [Compound C-1059]
3.78
COc1ccc(C[C@H](NC(=O)[C@H](C)NC(=O)CN2CCS(=O)(=O)CC2)C(=O)N[C@@H](CC2=CCCC2)C(=O)[C@@]2(C)CO2)cc1 [Compound C-1115]
2.70
COc1ccc(C[C@H](NC(=O)[C@@H](C)NC(=O)[C@H]2CNC(=O)C2)C(=O)N[C@@H](CC2CCCC2)C(=O)[C@@]2(C)CO2)cc1 [Compound C-1067]
3.66
COc1ccc(C[C@H](NC(=O)[C@H](C)NC(=O)CN2CCOCC2)C(=O)N[C@@H](C[C@H]2CCC(F)(F)C2)C(=O)[C@@]2(C)CO2)cc1 [Compound C-1034]
3.44

Take each entry in turn and give its log10 of solubility.
1. C[C@H](NC(=O)CN1CCOCC1)C(=O)N[C@@H](CCc1ccccc1)C(=O)N[C@@H](CC1=CCCC1)C(=O)[C@@]1(C)CO1 [Compound C-1128]
2. COc1ccc(C[C@H](NC(=O)[C@@H](C)NC(=O)[C@H]2CCOC2)C(=O)N[C@@H](CC2CCCC2)C(=O)[C@@]2(C)CO2)cc1 [Compound C-1037]

[3.14, 3.12]

----------
- experimentalProtocol: Solubility pH 7
- reportedConditions: pH 7, aqueous buffer
Label rule, in plain words: solubility of 2000 µg/mL and up is True, under 2000 µg/mL is False.

Completed entries (count: 5):
COc1ccc(C[C@H](NC(=O)[C@H](C)NC(=O)CN2CCC(F)(F)C2)C(=O)N[C@@H](CC2CCCC2)C(=O)[C@@]2(C)CO2)cc1
False
C[C@H](NC(=O)CN1CCOCC1)C(=O)N[C@@H](Cc1ccc2[nH]ccc2c1)C(=O)N[C@@H](CC1CCCC1)C(=O)[C@@]1(C)CO1
False
C[C@H](NC(=O)CN1CCOCC1)C(=O)NC(Cc1ccc2c(c1)COC(=O)N2)C(=O)N[C@@H](CC1CCCC1)C(=O)[C@@]1(C)CO1 (some centres unmarked)
True
C[C@H](NC(=O)CN1CCOCC1)C(=O)N[C@@H](Cc1ccncc1)C(=O)N[C@@H](Cc1ccccc1)C(=O)[C@@]1(C)CO1
False
COc1ccc(C[C@H](NC(=O)[C@H](CO)NC(=O)CN2CCOCC2)C(=O)N[C@@H](CC2=CCCCC2)C(=O)[C@@]2(C)CO2)cc1O
True

Hello, I need to know if COc1ccc(C[C@H](NC(=O)[C@H](C)NC(=O)CN2CCOCC2)C(=O)N[C@@H](CC2CCC2)C(=O)[C@@]2(C)CO2)cc1 has measured solubility not below 2000 µg/mL. Thanks!
True

Say whether COc1ccc(C[C@H](NC(=O)[C@@H](NC(=O)CN2CCOCC2)C2COC2)C(=O)N[C@@H](CC2=CCCCC2)C(=O)[C@@]2(C)CO2)cc1 shows solubility of 2000 µg/mL or more.
True

Reported solubility at or above 2000 µg/mL? COc1ccc([C@@H](O)[C@H](NC(=O)[C@H](C)NC(=O)CN2CCOCC2)C(=O)N[C@@H](CC2=CCCCC2)C(=O)[C@@]2(C)CO2)cc1
True

Evaluate C[C@H](NC(=O)CN1CCOCC1)C(=O)N[C@@H](Cc1ccc(C#N)cc1)C(=O)N[C@@H](CC1CCCC1)C(=O)[C@@]1(C)CO1 : solubility at minimum 2000 µg/mL?
False

Please indicate if the recorded solubility for C[C@H](NC(=O)CN1CCOCC1)C(=O)N[C@@H](Cc1ccc2c(c1)CCC(=O)N2)C(=O)N[C@@H](CC1CCCC1)C(=O)[C@@]1(C)CO1 meets or exceeds 2000 µg/mL.
True

Does the compound COc1ccc(C[C@H](NC(=O)[C@H](C)NC(=O)C2CN(C)C2)C(=O)N[C@@H](Cc2ccccc2)C(=O)[C@@]2(C)CO2)cc1 have recorded solubility that is 2000 µg/mL or more?
False

----------
- experimentalProtocol: Solubility pH 7
- reportedConditions: pH 7, aqueous buffer
Kindly state solubility for each of the entries shown.
A complete answer gives the number and then names the unit.

Consider the worked cases shown below.
COc1ccc(C[C@H](NC(=O)[C@@H](C)NC(=O)[C@H]2CC[C@@H](O)CC2)C(=O)N[C@@H](CC2=CCCC2)C(=O)[C@@]2(C)CO2)cc1
298 µg/mL
C[C@H](NC(=O)CN1CCOCC1)C(=O)N[C@@H](Cc1ccc2c(c1)CNC(=O)O2)C(=O)N[C@@H](CC1CCCC1)C(=O)[C@@]1(C)CO1
4730 µg/mL
COc1ccc(C[C@H](NC(=O)[C@@H](C)NC(=O)[C@@H]2CCCO2)C(=O)N[C@@H](CC2CCCC2)C(=O)[C@@]2(C)CO2)cc1
462 µg/mL
COc1ccc(C[C@H](NC(=O)[C@H](CO)NC(=O)CN2CCOCC2)C(=O)N[C@@H](Cc2ccccc2)C(=O)[C@@]2(C)CO2)cc1
1910 µg/mL
COc1ccc(C[C@H](NC(=O)[C@@H](C)NC(=O)[C@@H]2CCC(=O)NC2)C(=O)N[C@@H](CC2CCCC2)C(=O)[C@@]2(C)CO2)cc1
3010 µg/mL

solubility measured on COc1ccc(C[C@H](NC(=O)[C@@H](C)NC(=O)[C@@H]2CCCN(C)C2)C(=O)N[C@@H](CC2=CCCC2)C(=O)[C@@]2(C)CO2)cc1 = 7310 µg/mL

----------
- targetOrSystem: immunoproteasome subunit LMP7 (Homo sapiens, UniProt P28062)
- Construct: Lysate from the human acute lymphoblastic leukemia cell line, MOLT-4; endogenous in cells; host or cells: MOLT-4
- experimentalProtocol: Proteasome active-site ELISA (ProCISE), LMP7, MOLT-4 lysate
- Assay type: biochemical
- reportedConditions: MOLT4 lysate, 1 h continuous treatment, 25° C.
assayEndpoint: pIC50
Numbers only, as −log10 of the molar value.

Look over these answered cases.
COc1ccc(C[C@H](NC(=O)[C@@H](C)NC(=O)[C@H]2CC[C@@](C)(O)CC2)C(=O)N[C@@H](CC2=CCCC2)C(=O)[C@@]2(C)CO2)cc1
6.88
COc1ccc(C[C@H](NC(=O)[C@H](C)NC(=O)CN2CCS(=O)(=O)CC2)C(=O)N[C@@H](CC2=CCCCC2)C(=O)[C@@]2(C)CO2)cc1
6.50

Hi there! I need pIC50 for each item below, if you can.
1. COc1ccc([C@@H](O)[C@H](NC(=O)[C@H](CO)NC(=O)CN2CCOCC2)C(=O)N[C@@H](CC2=CCCCC2)C(=O)[C@@]2(C)CO2)cc1
2. COc1ccc(C[C@H](NC(=O)[C@@H](C)NC(=O)C2CCOCC2)C(=O)N[C@@H](CC2=CCCC2)C(=O)[C@@]2(C)CO2)cc1O
3. COc1ccc(C[C@H](NC(=O)[C@H](C)NC(=O)CN2CCOCC2)C(=O)N[C@@H](CC2CCCC2)C(=O)[C@H]2CO2)cc1OC
4. COc1ccc(C[C@H](NC(=O)[C@H](C)NC(=O)CN2CCOCC2)C(=O)N[C@@H](CC2=CCCC2)C(=O)[C@@]2(C)CO2)cc1

7.30
7.42
6.98
7.08

----------
For each entry below, report its solubility value.
- experimentalProtocol: Solubility pH 7
- reportedConditions: pH 7, aqueous buffer
One number for each entry, in µg/mL.

Examples with answers:
COc1ccc(C[C@H](NC(=O)[C@H](C)NC(=O)CN2CCOCC2)C(=O)N[C@@H](C[C@H]2CC[C@@H](O)CC2)C(=O)[C@@]2(C)CO2)cc1 [Compound C-1001]
2640
COc1ccc(C[C@H](NC(=O)[C@H](C)NC(=O)CN2CCOCC2)C(=O)N[C@@H](CC2=CCCC2)C(=O)[C@H]2CO2)cc1 [Compound C-1038]
230
COc1ccc(C[C@H](NC(=O)[C@@H](C)NC(=O)C2CCOCC2)C(=O)N[C@@H](CC2CCCC2)C(=O)[C@@]2(C)CO2)cc1O [Compound C-1061]
2050
COc1ccc(C[C@H](NC(=O)[C@H](C)NC(=O)CN2CCOCC2)C(=O)N[C@@H](C[C@H]2CCN(C)C2=O)C(=O)[C@@]2(C)CO2)cc1 [Compound C-1040]
12300

Shifting focus to the compound that follows.
For record C[C@H](NC(=O)CN1CCOCC1)C(=O)N[C@@H](Cc1ccc2[nH]ncc2c1)C(=O)N[C@@H](CC1CCCC1)C(=O)[C@@]1(C)CO1 [Compound C-1070] the listed solubility is 2140

Hello, the source for this data is patent USRE47302E1, in case you need it.
